Biological target: T1, cynomolgus CD30L expressed on HEK293 cells (cynomolgus, UniProt A0A7N9CVX7 1-234)
T1 sequence: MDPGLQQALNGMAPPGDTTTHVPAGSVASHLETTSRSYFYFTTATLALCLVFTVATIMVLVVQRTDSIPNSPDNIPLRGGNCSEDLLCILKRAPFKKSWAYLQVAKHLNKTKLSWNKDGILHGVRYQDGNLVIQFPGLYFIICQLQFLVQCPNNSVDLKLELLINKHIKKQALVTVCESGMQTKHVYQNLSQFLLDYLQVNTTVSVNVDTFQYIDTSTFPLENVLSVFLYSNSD
Test: cell-based or functional assay
valueKind: Inhibition of IL-8 release in a dual cell assay (HEK293-cyCD30L cells + K299 cells) IC50 (nM)
Field format: number, assumed nM, no unit text.

Query :: Return reported Inhibition of IL-8 release in a dual cell assay (HEK293-cyCD30L cells + K299 cells) IC50; argument: anti-CD30L Reference 1 antibody (antibody, human IgG1, lambda, V domains shown) VH: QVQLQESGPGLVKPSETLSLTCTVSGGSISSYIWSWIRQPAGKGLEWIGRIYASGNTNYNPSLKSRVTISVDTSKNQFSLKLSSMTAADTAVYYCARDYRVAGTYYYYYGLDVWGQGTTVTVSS VL: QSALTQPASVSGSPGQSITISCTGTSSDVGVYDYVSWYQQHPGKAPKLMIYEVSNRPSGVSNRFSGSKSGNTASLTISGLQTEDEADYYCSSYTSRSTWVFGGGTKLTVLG
Result :: 0.68

Origin of values: patent US20240254246A1
